Data origin: PubChem BioAssay (NCI)

# Test system: A549 NSCLC
# PROTOCOL_DESCRIPTION: NCI tumour cell line growth inhibition, 48 h
// reported TGI per item

Ask | For C/C(=C\c1ccn(-c2ccc(N)c(C(F)(F)F)c2)n1)[C@@H]1C[C@@H]2O[C@]2(C)CCC[C@H](C)[C@H](O)[C@@H](C)C(=O)C(C)(C)[C@@H](O)CC(=O)O1 , write its TGI.
Reply | > 32.5 µM

Ask | For O=C(OCc1ccccc1)N1CCNCCNCC1 , write its TGI.
Reply | > 100 µM

Ask | For Cc1cc(C)c2c(=O)cc(-c3ccc(Cl)cc3)[nH]c2n1 , write its TGI.
Reply | > 100 µM

Ask | For CCCCCCCCN(CCCCCCCC)C(=N)c1ccnc2ccccc12 , write its TGI.
Reply | 3.11 µM

---

// reported TGI per item
# Test system: COLO 205 colon
# PROTOCOL_DESCRIPTION: NCI tumour cell line growth inhibition, 48 h

Ask | For COC(=O)/C=C\c1ccc2c(c1)CC1(C2)Cc2ccc(/C=C/C(=O)OC)cc2C1 (stereo not drawn) , write its TGI.
Reply | > 31.6 µM

Ask | For CCOC(=O)Cc1ccc(Nc2nc3cc(C(F)(F)F)ccc3nc2C(=O)OCC)cc1 , write its TGI.
Reply | > 100 µM

Ask | For COC(=O)[C@@H]1O[C@]12C(CO[Si](C)(C)C(C)(C)C)OC(n1ccc(=O)[nH]c1=O)C2O[Si](C)(C)C(C)(C)C (stereo partly drawn) , write its TGI.
Reply | 69.7 µM

Ask | For O=c1oc2ccc(Cl)cc2c(=O)n1-c1ccc(Cl)cc1F , write its TGI.
Reply | 22.4 µM

Ask | For CC1(C)C(O)c2ccccc2OC1N1CCN(C2Oc3ccccc3C(O)C2(C)C)CC1 (stereo not drawn) , write its TGI.
Reply | > 100 µM

Ask | For O=C1O/C(=C\c2ccc(O)c(Br)c2)C(c2ccc(O)cc2)=C1Cl , write its TGI.
Reply | > 100 µM

Ask | For C=CCNC1=C2C[C@@H](C)C[C@@H](OC)[C@H](OC(=O)CN(C)C)[C@H](C)/C=C(\C)[C@@H](OC(N)=O)[C@H](OC)/C=C\C=C(/C)C(=O)NC(=CC1=O)C2=O , write its TGI.
Reply | 1.64 µM

Ask | For COc1cc2c(c(OC)c1OC)-c1ccc([O-])c(=O)cc1[C@@H](NC(C)=O)CC2.COc1cc2c(c(OC)c1OC)-c1ccc([O-])c(=O)cc1[C@@H](NC(C)=O)CC2.[Cu+2] , write its TGI.
Reply | 9.19 µM

Ask | For O=C(O)C(=O)Cc1ccc2c(c1)OCO2 , write its TGI.
Reply | > 100 µM

Ask | For COC(C)(C)C(O)C(O)C[C@H](C)C1CC=C2C1(C)CCC1[C@@]3(C)CCC(OC(C)=O)C(C)(C)C3CC(OC3OC(COC(C)=O)C(O)C(O)C3O)[C@@]21C (stereo partly drawn) , write its TGI.
Reply | 3.89 µM

Ask | For CCN1C(C)=NC2C(=O)c3ccccc3C(=O)C21 (stereo not drawn) , write its TGI.
Reply | > 100 µM

Ask | For COc1cc(-c2c[nH]c3ccccc23)nc(-c2c[nH]c3ccccc23)n1 , write its TGI.
Reply | 20.8 µM

Ask | For CC1(C)S[C@@H]2[C@H](NC(=O)CCC[C@@H](N)C(=O)O)C(=O)N2[C@H]1C(=O)O , write its TGI.
Reply | > 50 µM

Ask | For CN1CCC23c4c5ccc(O)c4OC2C(=NN=C2CCC4(O)C6Cc7ccc(O)c8c7C4(CCN6C)C2O8)CCC3(O)C1C5 (stereo not drawn) , write its TGI.
Reply | > 100 µM

Ask | For O=C(Sc1c(-c2ccccc2)c(=O)n(-c2ccccc2)c(=S)n1-c1ccccc1)c1ccc(Cl)cc1 , write its TGI.
Reply | > 100 µM

Ask | For O=C(OCc1ccccc1)N1CCNCCNCC1 , write its TGI.
Reply | > 100 µM

Ask | For O=c1c2cccnc2[nH]c2ccc3scnc3c12 , write its TGI.
Reply | > 10 µM

Ask | For O=C1CCC(=O)N1CNc1ccc2c(c1)Sc1ccccc1O2 , write its TGI.
Reply | 35.3 µM
